# Tested on: RXRa DBDmut IVT, anti-RXR (DBD mutation: RXRa K156A/R161A, NR concentration 90 nM)
# ASSAY DETAILS: PBM binding z-score (relative to random genomic background probes); higher = stronger binding; sequences stand for … in GC…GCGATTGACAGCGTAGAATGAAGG
Label no if PBM binding z-score falls below 1; label yes in every other case.

The following sequences have reported results that may help.
BIOSEQUENCE	CLASS NAME
CAAGCTAGGTCAAAGGTCAAAGTCGAGCCAACCA	yes
CAAACTAGGTCACGAAAGGTCAAAGTTGAATGAC	yes
CGAACTAGGTCACCAGGACAGTGAGGAGGTTGGA	yes

Challenge: Please check the record "AGTCAAAGTTGATCTAGGTAACGTAAGATATGCT" and state if its PBM binding z-score is at or above 1.
Response given: no

Challenge: And then "AGAGTGAGGTTACCAAAGATCAGGGAAACGCTTG" , what is it?
Response given: no

Challenge: And then "TAGAGTAGGTTACGGGGGCATTCAGGGATGAAGA" , what is it?
Response given: yes

Challenge: And then "TCGAGTAGGTTACGGGGACATTCAGGGATGAAGA" , what is it?
Response given: no

Challenge: And then "TCTAGTTGGTCACGGGGGTCACACACGACGGGTA" , what is it?
Response given: yes

Challenge: And then "AGTCAAAGTTCAGGACGAGGTAATGTAAAGCACG" , what is it?
Response given: yes

Challenge: And then "CGAACTAGGTCAAAGGACTGTGAAAGGCGACGTA" , what is it?
Response given: yes

Challenge: And then "ATATCTAGGTTAGGGTCATTCAGAAAGTAGGGAA" , what is it?
Response given: yes

###

# System: PPARg:RXRa (NR concentration 180 nM, RXRa partner concentration 90 nM)
# ASSAY DETAILS: PBM binding z-score (relative to random genomic background probes); higher = stronger binding; sequences stand for … in GC…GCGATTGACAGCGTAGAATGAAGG
MEASUREMENT TYPE: PBM binding z-score
The answer should be written as a number, with no unit following it.

Challenge: Look up PBM binding z-score for this sequence: "CCGCGTAGGTTACGAGGGGGCATTCAGTGCGAAT"
Response given: 0.847

Challenge: And then "ATATGTAGGTTAGGGTCATCCAGAAAGTAGGGAA" , what is it?
Response given: 8.03

Challenge: And then "GCTTACGGGTGAAAGGTTATAGCATGAATAGAAT" , what is it?
Response given: 9.88

###

# System: PPARg:RXRa DBDmut IVT, anti-RXR (DBD mutation: RXRa K156A/R161A, NR concentration 270 nM, RXRa partner concentration 90 nM)
# ASSAY DETAILS: PBM binding z-score (relative to random genomic background probes); higher = stronger binding; sequences stand for … in GC…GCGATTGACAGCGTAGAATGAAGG
Label -1 if PBM binding z-score falls below 4; label 1 in every other case.

BIOSEQUENCE	CLASS NAME
CTATGTAGGTTAAGGGGGTAATTCAGTTTGAAAG	1
ATATGTAGGTCATCGGGTCATTCAGTTTGCGCAT	1
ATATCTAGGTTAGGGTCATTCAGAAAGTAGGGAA	1
CGTCAAAGTTCAAGGTTACGTAACAGAAAGCAGC	-1
ATAAGTAGGTTAGGGTCATTCAGAAAGTAGGGAA	1

Challenge: Please check the record "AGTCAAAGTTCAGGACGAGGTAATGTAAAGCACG" and state if its PBM binding z-score is at or above 4.
Response given: -1

Challenge: And then "CGAACTAGGTCACCAGGACAGTTAAGAGGTTGGA" , what is it?
Response given: 1

Challenge: And then "TCTTGTAGGTCAAAGGTTAAGAAAGCCGAAGCCT" , what is it?
Response given: 1

Challenge: And then "TCTCGGAGGACACGAAGGTCAAAGCTTTCCAGAG" , what is it?
Response given: -1

###

# Tested on: RARa:RXR (NR concentration 270 nM, RXRa partner concentration 90 nM)
# ASSAY DETAILS: PBM binding z-score (relative to random genomic background probes); higher = stronger binding; sequences stand for … in GC…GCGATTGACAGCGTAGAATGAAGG
MEASUREMENT TYPE: PBM binding z-score
The answer should be written as a number, with no unit following it.

Answered cases to consult:
BIOSEQUENCE	TESTED TARGET	MEASURED RESULT
CCGAGTAGGTTACGAGGGAGCATTCAGTGCGAAT	RARa:RXR (NR concentration 270 nM, RXRa partner concentration 90 nM)	0.506
TCTGCTTGGTCAACGATGGTCAGCTAATCTGCTA	RARa:RXR (NR concentration 270 nM, RXRa partner concentration 90 nM)	0.401
CAAACTAGGTCAAGAGGTCAAAGGCCGCTTCCCG	RARa:RXR (NR concentration 270 nM, RXRa partner concentration 90 nM)	8.18
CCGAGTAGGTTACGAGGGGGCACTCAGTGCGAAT	RARa:RXR (NR concentration 270 nM, RXRa partner concentration 90 nM)	2.87
CCGAGTAGGTTACGGGGGGGCATTCAGTGCGAAT	RARa:RXR (NR concentration 270 nM, RXRa partner concentration 90 nM)	4.18

Challenge: Look up PBM binding z-score for this sequence: "CATACTAGGTCAAAGGTCAAAGTCGAGCCAACCA"
Response given: 8.63

Challenge: And then "CCGAGTAGGTTACGAGAGGGCATTCAGTGCGAAT" , what is it?
Response given: 2.08

Challenge: And then "CCTAGTTGGTCAAGGTCACGCACGCTATAGGTAC" , what is it?
Response given: 4.99

Challenge: And then "TAGCCTAGGTCATTCAGGCGCCAGTATAGAAAGC" , what is it?
Response given: 2.44

Challenge: And then "TCGAGTAGGCTACGGGGGCATTCAGGGATGAAGA" , what is it?
Response given: 1.43

Challenge: And then "ATATGTAGGTTAGGGTCATTCACAAAGTAGGGAA" , what is it?
Response given: 4.83

Challenge: And then "ACTAGTTGCTCAGCTGAGGTCACACACAATTCGG" , what is it?
Response given: 4.26

Challenge: And then "CGAACTAGGTCAGCAGGACAGTGAAGAGGTTGGA" , what is it?
Response given: 0.95

Challenge: And then "CGTCCAAGGTCAATGCTAGGCCAGTGAAAGCATT" , what is it?
Response given: 4.31

Challenge: And then "CCGAGTAGGTTACGAGGGGGGATTCAGTGCGAAT" , what is it?
Response given: 2.61

Challenge: And then "ACTATCAGGCCAAGGGTCACTCAAGATTAGTCCG" , what is it?
Response given: 4.42

Challenge: And then "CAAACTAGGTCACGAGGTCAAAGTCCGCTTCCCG" , what is it?
Response given: 6.91

Challenge: And then "CCGAGTAGGTTAAGAGGGGGCATTCAGTGCGAAT" , what is it?
Response given: 2.7

Challenge: And then "ATATGTTGGTTAGGGTCATTCAGAAAGTAGGGAA" , what is it?
Response given: 4.96

Challenge: And then "CTAACTAGGTCAAGGTCAAAGTCGGTTTGTGCCA" , what is it?
Response given: 4.65

Challenge: And then "CGAACTAGGTCACCAGGAGAGTGAAGAGGTTGGA" , what is it?
Response given: 2.45

###

# Test system: THRa homodimer (NR concentration 90 nM)
# ASSAY DETAILS: PBM binding z-score (relative to random genomic background probes); higher = stronger binding; sequences stand for … in GC…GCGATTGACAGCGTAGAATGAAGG
MEASUREMENT TYPE: PBM binding z-score
The answer should be written as a number, with no unit following it.

Answered cases to consult:
BIOSEQUENCE	PBM binding z-score
ATATGTAGGTTAGGGTCATTCGGAAAGTAGGGAA	3.3
TCGAGTAGGTTACGGGGGCATTCAAGGATGAAGA	1.06
CTATGTAGGTTAAGGGGGTCGTTCAGTTTGAAAG	1.62
CCGAGTAGGTTACGAGGGGGCATTCCGTGCGAAT	0.446
TCGAGTAGGTTAGGGGGGCATTCAGGGATGAAGA	2.28
CCGAGTAGGTGACGAGGGGGCATTCAGTGCGAAT	0.888
ACTCGGAGGACAAAGGTCAGAACTACGCCAGTGA	0.786
CGAACTATGTCAAGGACAGTGAATCTCCGCACGC	1.21

Challenge: Look up PBM binding z-score for this sequence: "CGTCCAAGGTCAAAGGTCAGTAAAGAGATGACGG"
Response given: 2.37

Challenge: And then "TCGAGTAGGTTACGGGGGCATGCAGGGATGAAGA" , what is it?
Response given: 0.997

Challenge: And then "CCTGCTAGGTCATGGTCAGGTAATCTACAGTATG" , what is it?
Response given: 1.97

Challenge: And then "CCTACTGGGCCATTGAGAGGTCATTGATCATATG" , what is it?
Response given: 1.26

Challenge: And then "CGAACTAGGTCAGAGGACAGTGAAAGGCGACGTA" , what is it?
Response given: 0.433

Challenge: And then "ATCGAAACGTCGTGAGGTGAGTATACAGAAAGGC" , what is it?
Response given: 0.771

Challenge: And then "CAAACTAGGTCACAGAGGGCAAAGTCCGTGCGTA" , what is it?
Response given: 1.55

Challenge: And then "CGAACTAGGTCAAAGGAGAGTGAAAGGCGACGTA" , what is it?
Response given: 0.277

Challenge: And then "GATACAGGGTCAAGGCCAGAGTACGCGTATTGAT" , what is it?
Response given: 1.35

Challenge: And then "TAGCCAAGGTCAGATCGGGCCAGTATACGCTATA" , what is it?
Response given: 1.09
